System: DMS 114 small cell lung
Assay: NCI tumour cell line growth inhibition, 48 h
TGI reference

| COMPOUND | TGI |
| --- | --- |
| COc1ccc(C2=Nc3ccccc3NC(=O)C2)cc1 | 59.7 µM |
| O=C(N/C(=C\c1ccc2c(c1)OCO2)c1nc2ccccc2[nH]1)c1ccccc1 | 6.08 µM |
| CC(=O)OCC1OC(OC2C(CSC3OC(COC(C)=O)C(OC(C)=O)C(OC(C)=O)C3OC(C)=O)OC(OC(C)=O)C(OC(C)=O)C2OC(C)=O)C(OC(C)=O)C(OC(C)=O)C1OC(C)=O (stereo unspecified) | > 100 µM |
| CCCc1[nH]c(SCCCCCCCCSc2nc(-c3ccc(F)cc3)c(CCC)[nH]2)nc1-c1ccc(F)cc1 | > 100 µM |
| O=C(COc1ccc2c(=O)cc(-c3ccccc3)oc2c1)N1CCN(c2ccccc2)CC1 | > 100 µM |
| CCc1ccccc1NC(=O)C(=O)CC(=O)c1sc(Nc2ccccc2)nc1C | > 100 µM |
| Cc1c(/C=N/NC(=O)c2cc(Br)cc(Br)c2O)c(=O)n(-c2ccccc2)n1C | 88.8 µM |
| CCN(CC)c1ccc(C(=O)c2ccccc2C(=O)O)c(O)c1 | > 100 µM |
| Cc1[nH]ccc2c1[nH]c1cc(=O)ccc12 | > 100 µM |
| NNC(=O)/C(=C/c1ccc(Cl)cc1Cl)NC(=O)c1ccccc1 | > 100 µM |
| Nn1c(NNC(=O)C(=O)Nc2cc(Cl)c(Cl)cc2Cl)n[nH]c1=S | > 100 µM |
| Cc1ccc(NC(=O)C(=O)C(C#N)c2ccccc2C)cc1C (stereo unspecified) | > 59.2 µM |
| O=c1/c(=C/c2ccccc2F)sc2nc3ccccc3n12 | > 100 µM |
| O=C(NCCCCCCNC(=O)n1cc(F)c(=O)[nH]c1=O)NCCCOCCOCCOCCOCCOCCOCCOCCOCCOCCOCCOCCOCCOCCOCCOCCOCCOCCOCCOCCOCCOCCCNC(=O)C(O)C(O)C(O)C(O)CO (stereo unspecified) | > 100 µM |
| O=[N+]([O-])C1C2C=CC(C2)[C@H]1c1ccco1 (stereo partly specified) | > 100 µM |
| NC1C[C@H](n2cc(/C=C/Br)c(=O)[nH]c2=O)C[C@@H]1CO (stereo partly specified) | > 100 µM |

====

Tested on: RPMI-8226 leukemia
Test: NCI tumour cell line growth inhibition, 48 h
REPORTED PROPERTY: TGI

| COMPOUND | REPORTED PROPERTY | OBSERVED |
| --- | --- | --- |
| O=C(c1cccc2ccccc12)C1(Br)S(=O)(=O)OCCOS1(=O)=O | TGI | > 100 µM |
| CN(C)CCCNC(=O)CCNC(=O)c1cc(NC(=O)c2cc(NC(=O)c3cc(NC(=O)c4nc(NC(=O)CCCNC(=O)c5cc(NC(=O)c6cc(NC(=O)c7cc(NC(=O)c8nccn8C)cn7C)cn6C)cn5C)cn4C)cn3C)cn2C)cn1C | TGI | > 100 µM |
| CC(C)(Br)C(Br)CCC(C)(Br)C(Br)CO (centres undefined) | TGI | > 10 µM |
| O=C1C(Cl)=C(OCCCCl)C(=O)c2c(O)ccc(O)c21 | TGI | 5.58 µM |
| CCOC(=O)c1nc2ccc(Cl)cc2c2c1Cc1ccccc1-2 | TGI | > 100 µM |
| C[n+]1c2ccccc2c(C(=O)Nc2ccc(S(=O)(=O)Nc3ccnn3-c3ccccc3)cc2)c2ccccc21 | TGI | > 100 µM |
| CSc1ccc(C2OC(=O)c3ccccc32)c2ccccc12 (centres undefined) | TGI | > 100 µM |
| COc1ccc(-c2nn3c(-c4cc(F)c(Cl)cc4Cl)nnc3s2)cc1 | TGI | 52.7 µM |
| O=C(/C=C/c1ccccc1)c1cc(Br)ccc1O | TGI | 34 µM |
